Record form. Attribute: CellTox Green cytotoxicity fluorescence. Fill in for each entry.
System: MV4-11
ASSAY_DETAILS: CellTox Green cytotoxicity fluorescence relative to DMSO vehicle (fold of vehicle RFU); higher = more cell death (loss of membrane integrity), active = 2 or more
COND: 1 µM; 24 h
Give bare numbers.

# example entries with known answers
molecule="CN(C)CCCCC(=O)Nc1ccc(NC(=S)NC(=O)c2ccc(C(C)(C)C)cc2)cc1 [Tenovin-6]" property="CellTox Green cytotoxicity fluorescence" assay_value=1.02
molecule=Nc1ccccc1NC(=O)c1cnccn1 property="CellTox Green cytotoxicity fluorescence" assay_value=0.954
molecule=CC(=O)N1c2ccc(-c3ccc(C(=O)O)cc3)cc2[C@H](Nc2ccc(Cl)cc2)C[C@@H]1C property="CellTox Green cytotoxicity fluorescence" assay_value=1.09

From here, focus on the item given below.
// query Looking for the measured CellTox Green cytotoxicity fluorescence of "CN1CCN(CCCNc2ncc(Cl)c(-c3cc4c(C(=O)NC5CC5)cccc4s3)n2)CC1" , can you help?
// result 0.903

----------
Provide the recorded CellTox Green cytotoxicity fluorescence for the entries that follow.
Test system: CMK
ASSAY_DETAILS: CellTox Green cytotoxicity fluorescence relative to DMSO vehicle (fold of vehicle RFU); higher = more cell death (loss of membrane integrity), active = 2 or more
COND: 0.01 µM; 48 h
One number for each entry.

Consider the following illustrative entries.
compound="COc1nc(OCc2cccc(-c3ccccc3)c2C)ccc1CNCCNC(C)=O [PD-1/PD-L1 inhibitor 2]" assay_value=0.96
compound="NS(=O)(=O)C#Cc1ccccc1 [Pifithrin-m]" assay_value=0.96
compound="O=C(NS(=O)(=O)c1ccc(Br)s1)c1ccc(Cl)cc1Cl [Tasisulam]" assay_value=0.972
compound=CN[C@@H](C)C(=O)N[C@H](C(=O)N1CCC[C@H]1c1nc(C(=O)c2ccc(F)cc2)cs1)C1CCCCC1 assay_value=0.958
compound="Nc1cccc2c1CN(C1CCC(=O)NC1=O)C2=O (configuration not stated) [Lenalidomide]" assay_value=0.942

// input: 2 compounds below; output: CellTox Green cytotoxicity fluorescence for each
1. COc1ccc(C2=N[C@@H](c3ccc(Cl)cc3)[C@@H](c3ccc(Cl)cc3)N2C(=O)N2CCNC(=O)C2)c(OC(C)C)c1 [Nutlin-3]
2. COc1cc(C(=O)N2CCC(N3CCN(C)CC3)CC2)ccc1Nc1ncc2c(n1)N(C)c1ccccc1C(=O)N2C

// result
0.982
0.923

----------
Test system: Kasumi-1
ASSAY_DETAILS: CellTox Green cytotoxicity fluorescence relative to DMSO vehicle (fold of vehicle RFU); higher = more cell death (loss of membrane integrity), active = 2 or more
COND: 0.1 µM; 72 h
PROPERTY: CellTox Green cytotoxicity fluorescence
Answers are plain numbers.

As a guide, the following entries are already answered.
molecule="CC(C)CC(NC(=O)C(Cc1ccccc1)CC(O)C(Cc1ccccc1)NC(=O)OC(C)(C)C)C(=O)NC(Cc1ccccc1)C(N)=O (stereo unspecified)" property="CellTox Green cytotoxicity fluorescence" assay_value=0.946
molecule=COc1cc(C(=O)O)ccc1NC(=O)[C@@H]1N[C@@H](CC(C)(C)C)[C@](C#N)(c2ccc(Cl)cc2F)[C@H]1c1cccc(Cl)c1F property="CellTox Green cytotoxicity fluorescence" assay_value=0.947
molecule=O=C(NS(=O)(=O)c1ccc(Br)s1)c1ccc(Cl)cc1Cl property="CellTox Green cytotoxicity fluorescence" assay_value=0.984
molecule=CCCCCCCCCCCC1=C(O)C(=O)C=C(O)C1=O property="CellTox Green cytotoxicity fluorescence" assay_value=0.996
molecule=COC(=O)[C@H](CCSC)NC(=O)c1ccc(NC[C@@H](N)CS)cc1-c1ccccc1 property="CellTox Green cytotoxicity fluorescence" assay_value=0.924
molecule=CC(C)[C@H](CO)Nc1nc(Nc2cccc(Cl)c2)c2ncn(C(C)C)c2n1 property="CellTox Green cytotoxicity fluorescence" assay_value=0.974
molecule=Nc1nc(F)nc2c1ncn2[C@@H]1O[C@H](CO)[C@@H](O)[C@@H]1O property="CellTox Green cytotoxicity fluorescence" assay_value=0.984
molecule=CN[C@@H](C)C(=O)N[C@H](C(=O)N1CCC[C@H]1C(=O)Nc1snnc1-c1ccccc1)C1CCCCC1 property="CellTox Green cytotoxicity fluorescence" assay_value=1.07
molecule=CN(C)CC[C@H](CSc1ccccc1)Nc1ccc(S(=O)(=O)NC(=O)c2ccc(N3CCN(Cc4ccccc4-c4ccc(Cl)cc4)CC3)cc2)cc1[N+](=O)[O-] property="CellTox Green cytotoxicity fluorescence" assay_value=1.66
molecule=COc1cc(C(=O)N2CCC(N3CCN(C)CC3)CC2)ccc1Nc1ncc2c(n1)N(C)c1ccccc1C(=O)N2C property="CellTox Green cytotoxicity fluorescence" assay_value=1

Below are 5 molecules. Give each one its CellTox Green cytotoxicity fluorescence.
1. Cc1cccc(CC(=O)N2CCc3c2ccc(-c2cn(C)c4ncnc(N)c24)c3F)n1
2. C/C(=N\NC(=O)c1cccc(S(=O)(=O)N2CCOCC2)c1)c1cc(Cl)ccc1O
3. CN(C)CCCCC(=O)Nc1ccc(NC(=S)NC(=O)c2ccc(C(C)(C)C)cc2)cc1
4. CNC(=O)c1ccccc1Nc1cc(Nc2ccc(N3CCOCC3)cc2OC)ncc1C(F)(F)F
5. CC1(C)CCC(c2ccc(Cl)cc2)=C(CN2CCN(c3ccc(C(=O)NS(=O)(=O)c4ccc(N[C@H](CCN5CCOCC5)CSc5ccccc5)c(S(=O)(=O)C(F)(F)F)c4)cc3)CC2)C1

// result
1. 1.04
2. 0.968
3. 0.879
4. 0.96
5. 1.7

Dear colleague, could you send me CellTox Green cytotoxicity fluorescence for each of the items below? Thanks.
1. CCOc1cc(C(C)(C)C)ccc1C1=N[C@@](C)(c2ccc(Cl)cc2)[C@@](C)(c2ccc(Cl)cc2)N1C(=O)N1CCN(CCCS(C)(=O)=O)CC1
2. CN1CCN(CCCNc2ncc(Cl)c(-c3cc4c(C(=O)NC5CC5)cccc4s3)n2)CC1
3. Nc1cccc2c1C(=O)N(C1CCC(=O)NC1=O)C2=O (stereo unspecified) [Pomalidomide]

// result
0.96
0.949
0.985

Parameter requested: CellTox Green cytotoxicity fluorescence. Apply to each item below.
1. O=C1CCC(N2C(=O)c3ccccc3C2=O)C(=O)N1 (stereo unspecified) [Thalidomide]
2. CN1CCN(Cc2ccc(Nc3ncc(Cl)c(Nc4ccccc4S(=O)(=O)N(C)C)n3)cc2)CC1
3. C=CC(=O)N1CCN(C(=O)CNc2cc(I)c(Cl)cc2O)CC1 [K-Ras(G12C) inhibitor 12]
4. Fc1ccc(CNc2ncnc3ccc(F)cc23)cc1

// result
0.908
1.49
0.979
0.997

Provide CellTox Green cytotoxicity fluorescence for all items below, preserving their order.
1. COc1ccc(C2=N[C@@H](c3ccc(Cl)cc3)[C@@H](c3ccc(Cl)cc3)N2C(=O)N2CCNC(=O)C2)c(OC(C)C)c1
2. CC(C)(C)C[C@@H]1N[C@@H](C(=O)N[C@H]2CC[C@H](O)CC2)[C@H](c2cccc(Cl)c2F)[C@]12C(=O)Nc1cc(Cl)ccc12

// result
0.959
1

Please give CellTox Green cytotoxicity fluorescence for each item listed below.
1. COc1cccc(-n2c(=O)[nH]c3cc(Cl)n(-c4ccc(-c5cccc(OC)c5O)cc4)c3c2=O)c1
2. CCS(=O)(=O)N1CCN(c2ccc(Nc3ncc(C(N)=O)c(NC4CC4)n3)cc2)CC1
3. Cc1nn(C)c(COc2ccc(N3CCN(S(=O)(=O)N(C)C)CC3)cc2)c1-c1cccc2c(CCCOc3cccc4ccccc34)c(C(=O)O)n(CCN3CCOCC3)c12

// result
0.991
1.07
1.04

Hey, quick one: what's CellTox Green cytotoxicity fluorescence for each of these?
1. CC[C@@]1(O)C(=O)OCc2c1cc1n(c2=O)Cc2cc3cc(O)ccc3nc2-1 [(S)-10-Hydroxycamptothecin]
2. CC(C)c1ccccc1Cc1cc(C(=O)Nc2ccc(S(=O)(=O)c3ccccc3C(C)(C)C)cc2)c(O)c(O)c1O
3. CCCCC(C=O)NC(=O)C(CC(C)C)NC(=O)C(CC(C)C)NC(C)=O (stereo unspecified)
4. CC[C@H](NC(=O)[C@H](C)NC)C(=O)N1C[C@@H](O)C[C@H]1Cc1c(-c2[nH]c3cc(F)ccc3c2C[C@@H]2C[C@H](O)CN2C(=O)[C@H](CC)NC(=O)[C@H](C)NC)[nH]c2cc(F)ccc12

// result
[1.27, 0.932, 1, 1.2]
